system-under-test: STING WT: His-TVMV-S-hSTING(155-341)-H232R (Homo sapiens, UniProt Q86WV6, H232R)
Construct: STING WT: His-TVMV-S-hSTING(155-341)-H232R
Sequence (Q86WV6 with tags, fused parts or gaps H232R): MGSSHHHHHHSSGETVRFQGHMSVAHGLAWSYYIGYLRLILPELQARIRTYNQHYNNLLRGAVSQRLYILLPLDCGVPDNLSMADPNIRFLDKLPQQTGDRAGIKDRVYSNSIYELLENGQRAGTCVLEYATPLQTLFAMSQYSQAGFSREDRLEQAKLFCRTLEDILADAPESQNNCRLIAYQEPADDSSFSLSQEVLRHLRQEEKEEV
experiment: STING HTRF binding assay, STING WT
protocol-conditions: 20 nM His-tagged STING cytoplasmic domain WT, 200 nM fluorescein-labeled cGAMP analog probe, one hour; read-out: HTRF Binding Assays IC50 (μM) WT
measured-property: IC50 (µM)
Give bare numbers, in µM.

Examples with their reported IC50 follow.
compound	output-unit	IC50
CNC(=O)c1cc([C@@H]2O[C@@H]3COP(=O)(S)O[C@H]4[C@@H](F)[C@H](n5cnc6c(N)ncnc65)O[C@@H]4COP(=O)(S)O[C@@H]2[C@@H]3O)ccn1 (single isomer, unassigned) [Example 2-4]	µM	92.3
C=C1[C@H]2OP(=O)(S)OC[C@H]3O[C@@H](n4cnc5c(N)ncnc54)[C@H](F)[C@@H]3OP(=O)(S)OC[C@H]1O[C@H]2c1ccnc(C(N)=O)c1 (single isomer, unassigned) [Example 3-4]	µM	1.21
C=C1[C@H]2OP(=O)(S)OC[C@H]3O[C@@H](n4cnc5c(N)ncnc54)[C@H](F)[C@@H]3OP(=O)(S)OC[C@H]1O[C@H]2c1ccnc(C(N)=O)c1 (single isomer, unassigned) [Example 3-3]	µM	14.4

Proceed to the following item.
**Query** Consider the compound NC(=O)c1cc([C@@H]2O[C@@H]3COP(=O)(S)O[C@H]4[C@@H](F)[C@H](n5cnc6c(N)ncnc65)O[C@@H]4COP(=O)(S)O[C@@H]2[C@@H]3O)ccn1 (single isomer, unassigned) . State its measured IC50.
**Result** 0.09
